Reported Ratio is given for each of the following molecules.
TEST SYSTEM: Protein-glutamine gamma-glutamyltransferase (Homo sapiens)
ASSAY EXPLANATION: Irreversible inhibition of recombinant human TG2 expressed in Escherichia coli BL21 assessed as ratio of Kinact/Ki using AL5 as substrate by linear regression analysis
METRIC NAME: Ratio

SMI | METRIC NAME | REPORTED
C=CC(=O)NCCCC[C@H](NC(=O)Cc1ccccc1Cl)C(=O)N1CCN(C(=O)[C@@H](Cc2ccccc2)NC(=O)c2cccc3ccccc23)CC1 | Ratio | 127 10^3/M/min
C=CC(=O)NCCCC[C@H](NC(=O)Cc1ccccc1C)C(=O)N1CCN(C(=O)[C@@H](Cc2ccccc2)NC(=O)c2cccc3ccccc23)CC1 | Ratio | 238 10^3/M/min
C=CC(=O)NCCCC[C@H](NC(=O)Cc1ccccc1Br)C(=O)N1CCN(C(=O)[C@@H](Cc2ccccc2)NC(=O)c2cccc3ccccc23)CC1 | Ratio | 132 10^3/M/min
C=CC(=O)NCCCC[C@H](NC(=O)Cc1ccccc1Cl)C(=O)N1CCN(C(=O)[C@@H](C)NC(=O)c2cccc3ccccc23)CC1 | Ratio | 170 10^3/M/min

---

TEST SYSTEM: Protein-glutamine gamma-glutamyltransferase (Homo sapiens, UniProt P21980)
Sequence (P21980 whole entry): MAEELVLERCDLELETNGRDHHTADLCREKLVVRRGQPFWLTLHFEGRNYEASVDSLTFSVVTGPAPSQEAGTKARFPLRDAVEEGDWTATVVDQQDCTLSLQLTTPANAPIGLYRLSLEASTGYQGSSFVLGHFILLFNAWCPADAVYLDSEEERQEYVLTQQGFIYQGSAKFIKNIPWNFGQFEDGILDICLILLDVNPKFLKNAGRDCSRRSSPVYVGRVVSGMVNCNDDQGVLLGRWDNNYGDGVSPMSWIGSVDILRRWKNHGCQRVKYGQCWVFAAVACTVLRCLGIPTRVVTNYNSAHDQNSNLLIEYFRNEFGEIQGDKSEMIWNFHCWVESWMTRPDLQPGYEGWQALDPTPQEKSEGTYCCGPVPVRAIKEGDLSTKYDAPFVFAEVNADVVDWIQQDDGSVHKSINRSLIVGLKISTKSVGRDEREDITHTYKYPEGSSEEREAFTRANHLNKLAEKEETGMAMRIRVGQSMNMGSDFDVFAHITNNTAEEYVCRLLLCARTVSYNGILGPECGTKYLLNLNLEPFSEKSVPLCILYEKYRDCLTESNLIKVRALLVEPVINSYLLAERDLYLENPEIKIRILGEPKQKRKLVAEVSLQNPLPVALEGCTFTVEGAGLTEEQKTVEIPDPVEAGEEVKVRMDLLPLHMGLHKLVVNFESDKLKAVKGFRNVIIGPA
ASSAY EXPLANATION: Irreversible inhibition of recombinant human TG2 expressed in Escherichia coli BL21 assessed as inhibition constant using AL5 as substrate by continuous chromogenic assay
Entries annotated with measured Ki

SMI | Ki
C=CC(=O)NCCCC[C@H](NC(=O)Cc1ccccc1Cl)C(=O)N1CCN(C(=O)[C@H](Cc2ccccc2)NC(=O)c2cccc3ccccc23)CC1 | 1.6 µM
C=CC(=O)NCCCC[C@H](NC(=O)OCc1ccccc1)C(=O)N1CCN(C(=O)[C@H](CC(C)C)NC(=O)c2cccc3ccccc23)CC1 | 12.8 µM
C=CC(=O)NCCCC[C@H](NC(=O)OCc1ccccc1)C(=O)N1CCN(C(=O)[C@@H](CC(C)C)NC(=O)c2cccc3ccccc23)CC1 | 4.4 µM
C=CC(=O)NCCCC[C@H](NC(=O)Cc1ccccc1C)C(=O)N1CCN(C(=O)[C@@H](C)NC(=O)c2cccc3ccccc23)CC1 | 14.9 µM

---

TEST SYSTEM: Protein-glutamine gamma-glutamyltransferase (Homo sapiens) (UniProt P21980)
Sequence (P21980 whole entry): as above
ASSAY EXPLANATION: Irreversible inhibition of recombinant human TG2 expressed in Escherichia coli BL21 assessed as ratio of Kinact/Ki using AL5 as substrate by continuous chromogenic assay
Let's look at some compounds and their measured Ratio.

SMI | Ratio
C=CC(=O)NCCCC[C@H](NC(=O)OCc1ccccc1)C(=O)N1CCN(C(=O)[C@@H](CC(C)C)NC(=O)c2cccc3ccccc23)CC1 | 330 10^3/M/min
C=CC(=O)NCCCC[C@H](NC(=O)OCc1ccccc1)C(=O)N1CCN(C(=O)CNC(=O)c2cccc3ccccc23)CC1 | 513 10^3/M/min
C=CC(=O)NCCCC[C@H](NC(=O)Cc1ccccc1C)C(=O)N1CCN(C(=O)[C@H](C)NC(=O)c2cccc3ccccc23)CC1 | 418 10^3/M/min
C=CC(=O)NCCCC[C@H](NC(=O)OCc1ccccc1)C(=O)N[C@@H](C(=O)N1CCN(C(=O)c2cccc3ccccc23)CC1)C(C)C | 65 10^3/M/min
C=CC(=O)NCCCC[C@H](NC(=O)Cc1ccccc1OC)C(=O)N1CCN(C(=O)[C@H](C)NC(=O)c2cccc3ccccc23)CC1 | 252 10^3/M/min
C=CC(=O)NCCCC[C@H](NC(=O)OCc1ccccc1)C(=O)NCC(=O)N1CCN(C(=O)c2cccc3ccccc23)CC1 | 330 10^3/M/min
C=CC(=O)NCCCC[C@H](NC(=O)OCc1ccccc1)C(=O)N1CCN(C(=O)[C@@H](C)NC(=O)c2cccc3ccccc23)CC1 | 590 10^3/M/min
